Tested on: NCI-H226 lung
Test: NCI-60 one-dose screen, 48 h
Conditions: 10 µM unless noted
About 83,000 compounds went through this panel and 20% of them were active in at least one assay; those are over-represented in the sample as a whole. Active and inactive are the calls of the source. How the source made its calls: active means growth percent below 10; inactive means the rest.
Choose one outcome from this list and give only that: true (1) for active, false (0) for inactive

Input: Dear colleague, could you share the recorded outcome for O=C1CCC(N2C(=O)c3cccc(NCCCCCC(=O)N4CCN(c5ccc6nc7c(nc6c5C(F)(F)F)C(=O)c5ncccc5C7=O)CC4)c3C2=O)C(=O)N1 (stereo not drawn) when you have a moment?
Output: true (1)

Input: Dear colleague, could you share the recorded outcome for COc1ccc(NC(=O)Cn2c(/C=C/c3cccc(OC)c3)nc3ccccc3c2=O)cc1 when you have a moment?
Output: true (1)

Input: Dear colleague, could you share the recorded outcome for Cc1ccc(O)cc1Nc1nc(SCCN2CCOCC2)nc2c1cnn2CC(Cl)c1ccc(Br)cc1 (stereo not drawn) when you have a moment?
Output: false (0)

Input: Dear colleague, could you share the recorded outcome for O=c1c(-c2nc(-c3ccccc3)c(-c3ccccc3)[nH]2)coc2ccc(F)cc12 when you have a moment?
Output: false (0)

Input: Dear colleague, could you share the recorded outcome for CS(=O)(=O)Nc1cccc(-n2cnc3cc(-c4ccc(O)cc4)ccc32)c1 when you have a moment?
Output: false (0)

Input: Dear colleague, could you share the recorded outcome for C=CCSc1nnc(-c2ccc(-c3nc4ccccc4[nH]3)cc2)o1 when you have a moment?
Output: false (0)

Input: Dear colleague, could you share the recorded outcome for COc1cc(/C=C/C(=O)c2ccc(S(=O)(=O)NCCNc3nc(N(C)C)nc(N4CCOCC4)n3)cc2)cc(OC)c1OC when you have a moment?
Output: false (0)

Input: Dear colleague, could you share the recorded outcome for CC(=O)Nc1ccc(S(=O)(=O)Nc2ccc(-c3ccc4c(c3)NC(=O)/C4=C\c3ccc[nH]3)cc2)cc1 when you have a moment?
Output: false (0)
